Hi there, I'd appreciate the recorded Rat Plasma Prodrug (%) for every entry that follows.
- test_settings: 30 min, 5 µM
Please respond with the number in % and leave the unit unwritten.

Asked: Param item = COc1ccc([C@@]23CCC(OC(=O)CCC(C)C)=C[C@@H]2N(C)CC3)cc1OC ; retrieve measured Rat Plasma Prodrug (%).
Given back: 0.0

Asked: Param item = CCC(C)(CC)C(=O)OC1=C[C@@H]2N(C)CC[C@]2(c2ccc(OC)c(OC)c2)CC1 ; retrieve measured Rat Plasma Prodrug (%).
Given back: 98.3

Asked: Param item = CCC(C)(C)C(=O)OC1=C[C@@H]2N(C)CC[C@]2(c2ccc(OC)c(OC)c2)CC1 ; retrieve measured Rat Plasma Prodrug (%).
Given back: 69.9

Asked: Param item = CCCC(C)C(=O)OC1=C[C@@H]2N(C)CC[C@]2(c2ccc(OC)c(OC)c2)CC1 (stereo partly drawn) ; retrieve measured Rat Plasma Prodrug (%).
Given back: 0.1

Asked: Param item = COc1ccc([C@@]23CCC(OC(=O)CCN)=C[C@@H]2N(C)CC3)cc1OC ; retrieve measured Rat Plasma Prodrug (%).
Given back: 0.5

Asked: Param item = COCCCCC(=O)OC1=C[C@@H]2N(C)CC[C@]2(c2ccc(OC)c(OC)c2)CC1 ; retrieve measured Rat Plasma Prodrug (%).
Given back: 0.3

Asked: Param item = COc1ccc([C@@]23CCC(OC(=O)c4cccc(C)c4)=C[C@@H]2N(C)CC3)cc1OC ; retrieve measured Rat Plasma Prodrug (%).
Given back: 0.3

Asked: Param item = COc1ccc([C@@]23CCC(OC(=O)CC(C)(C)C)=C[C@@H]2N(C)CC3)cc1OC ; retrieve measured Rat Plasma Prodrug (%).
Given back: 45.7

Asked: Param item = CCCC(CC)CC(=O)OC1=C[C@@H]2N(C)CC[C@]2(c2ccc(OC)c(OC)c2)CC1 (stereo partly drawn) ; retrieve measured Rat Plasma Prodrug (%).
Given back: 0.7

Asked: Param item = CCCCCC(C)C(=O)OC1=C[C@@H]2N(C)CC[C@]2(c2ccc(OC)c(OC)c2)CC1 (stereo partly drawn) ; retrieve measured Rat Plasma Prodrug (%).
Given back: 0.6

Asked: Param item = CCC(C)C(=O)OC1=C[C@@H]2N(C)CC[C@]2(c2ccc(OC)c(OC)c2)CC1 (stereo partly drawn) ; retrieve measured Rat Plasma Prodrug (%).
Given back: 0.1

Asked: Param item = CCCC(CCC)C(=O)OC1=C[C@@H]2N(C)CC[C@]2(c2ccc(OC)c(OC)c2)CC1 ; retrieve measured Rat Plasma Prodrug (%).
Given back: 73.4

Asked: Param item = COCCOCCC(=O)OC1=C[C@@H]2N(C)CC[C@]2(c2ccc(OC)c(OC)c2)CC1 ; retrieve measured Rat Plasma Prodrug (%).
Given back: 0.0

Asked: Param item = COc1ccc([C@@]23CCC(OC(=O)c4ccc(C(C)C)cc4)=C[C@@H]2N(C)CC3)cc1OC ; retrieve measured Rat Plasma Prodrug (%).
Given back: 0.2

Asked: Param item = CCCC(C)(C)C(=O)OC1=C[C@@H]2N(C)CC[C@]2(c2ccc(OC)c(OC)c2)CC1 ; retrieve measured Rat Plasma Prodrug (%).
Given back: 83.9

Asked: Param item = COc1ccc([C@@]23CCC(OC(=O)c4cccc(C)c4C)=C[C@@H]2N(C)CC3)cc1OC ; retrieve measured Rat Plasma Prodrug (%).
Given back: 58.4

Asked: Param item = CCCCCCCC(=O)OC1=C[C@@H]2N(C)CC[C@]2(c2ccc(OC)c(OC)c2)CC1 ; retrieve measured Rat Plasma Prodrug (%).
Given back: 0.1

Asked: Param item = CCC(CC)C(=O)OC1=C[C@@H]2N(C)CC[C@]2(c2ccc(OC)c(OC)c2)CC1 ; retrieve measured Rat Plasma Prodrug (%).
Given back: 33.2

Asked: Param item = CCCCC(CC)C(=O)OC1=C[C@@H]2N(C)CC[C@]2(c2ccc(OC)c(OC)c2)CC1 (stereo partly drawn) ; retrieve measured Rat Plasma Prodrug (%).
Given back: 55.8

====

Hi there, I'd appreciate the recorded Condition 2 Conversion (%) for every entry that follows.
- Assay type: physicochemical
- test_settings: DI water, 25° C., 0.5 mM, time 1 min
Please respond with the number in % and leave the unit unwritten.

Asked: Param item = COc1ccc([C@@]23CCC(OC(=O)c4ccc(C(F)(F)F)cc4)=C[C@@H]2N(C)CC3)cc1OC ; retrieve measured Condition 2 Conversion (%).
Given back: 0

Asked: Param item = COc1ccc([C@]23CCN(C)[C@H]2CC2(CC3)OCC(C34CC5CC(CC(C5)C3)C4)O2)cc1OC (some centres unmarked) ; retrieve measured Condition 2 Conversion (%).
Given back: 0

Asked: Param item = COc1ccc([C@]23CCN(C)[C@H]2CC2(CC3)Oc3ccccc3O2)cc1OC ; retrieve measured Condition 2 Conversion (%).
Given back: 0

Asked: Param item = COc1ccc([C@]23CCN(C)[C@H]2CC2(CC3)OCC(COc3ccccc3OC)O2)cc1OC (some centres unmarked) ; retrieve measured Condition 2 Conversion (%).
Given back: 0

Asked: Param item = COc1ccc([C@@]23CCC(=NNC(=O)c4ccc(F)cc4)C[C@@H]2N(C)CC3)cc1OC ; retrieve measured Condition 2 Conversion (%).
Given back: 20.02

Asked: Param item = CCCCC(=O)OC1=C[C@@H]2N(C)CC[C@]2(c2ccc(OC)c(OC)c2)CC1 ; retrieve measured Condition 2 Conversion (%).
Given back: 0

Asked: Param item = COc1ccc([C@@]23CCC(=NNC(=O)CCCC(=O)O)C[C@@H]2N(C)CC3)cc1OC ; retrieve measured Condition 2 Conversion (%).
Given back: 40

Asked: Param item = CCC(C)CC(=O)OC1=C[C@@H]2N(C)CC[C@]2(c2ccc(OC)c(OC)c2)CC1 (some centres unmarked) ; retrieve measured Condition 2 Conversion (%).
Given back: 0

====

Hi there, I'd appreciate the recorded Human Plasma Prodrug (%) for every entry that follows.
- test_settings: 240 min, 5 µM

Asked: Param item = CCCC(C)C(=O)OC1=C[C@@H]2N(C)CC[C@]2(c2ccc(OC)c(OC)c2)CC1 (some centres unmarked) [Compound 402] ; retrieve measured Human Plasma Prodrug (%).
Given back: 1.1%

Asked: Param item = CCCCC(CC)C(=O)OC1=C[C@@H]2N(C)CC[C@]2(c2ccc(OC)c(OC)c2)CC1 (some centres unmarked) [Compound 401] ; retrieve measured Human Plasma Prodrug (%).
Given back: 93.4%

Asked: Param item = CCCCCCCC(=O)OC1=C[C@@H]2N(C)CC[C@]2(c2ccc(OC)c(OC)c2)CC1 [Compound 395] ; retrieve measured Human Plasma Prodrug (%).
Given back: 0.1%

Asked: Param item = COc1ccc([C@@]23CCC(OC(=O)c4c(C)cccc4C)=C[C@@H]2N(C)CC3)cc1OC [Compound 372] ; retrieve measured Human Plasma Prodrug (%).
Given back: >99%

Asked: Param item = COc1ccc([C@@]23CCC(OC(=O)c4cccc(C)c4C)=C[C@@H]2N(C)CC3)cc1OC [Compound 373] ; retrieve measured Human Plasma Prodrug (%).
Given back: 96.3%

Asked: Param item = CCC(C)(CC)C(=O)OC1=C[C@@H]2N(C)CC[C@]2(c2ccc(OC)c(OC)c2)CC1 [Compound 430] ; retrieve measured Human Plasma Prodrug (%).
Given back: 95.9%

Asked: Param item = COc1ccc([C@@]23CCC(OC(=O)CC(C)(C)C)=C[C@@H]2N(C)CC3)cc1OC [Compound 431] ; retrieve measured Human Plasma Prodrug (%).
Given back: 37.4%

Asked: Param item = COc1ccc([C@@]23CCC(OC(=O)c4c(C)cc(C)cc4C)=C[C@@H]2N(C)CC3)cc1OC [Compound 356] ; retrieve measured Human Plasma Prodrug (%).
Given back: >99%

Asked: Param item = CCCC(C)(C)C(=O)OC1=C[C@@H]2N(C)CC[C@]2(c2ccc(OC)c(OC)c2)CC1 [Compound 429] ; retrieve measured Human Plasma Prodrug (%).
Given back: 84.6%

Asked: Param item = COc1ccc([C@@]23CCC(OC(=O)CCN)=C[C@@H]2N(C)CC3)cc1OC [Compound 397] ; retrieve measured Human Plasma Prodrug (%).
Given back: 0.0%

Asked: Param item = COCCCCC(=O)OC1=C[C@@H]2N(C)CC[C@]2(c2ccc(OC)c(OC)c2)CC1 [Compound 404] ; retrieve measured Human Plasma Prodrug (%).
Given back: 1.6%

Asked: Param item = COc1ccc([C@@]23CCC(OC(=O)c4cccc(C)c4)=C[C@@H]2N(C)CC3)cc1OC [Compound 374] ; retrieve measured Human Plasma Prodrug (%).
Given back: 95.4%

Asked: Param item = CCC(C)C(=O)OC1=C[C@@H]2N(C)CC[C@]2(c2ccc(OC)c(OC)c2)CC1 (some centres unmarked) [Compound 425] ; retrieve measured Human Plasma Prodrug (%).
Given back: 1.9%

Asked: Param item = COCCOCCC(=O)OC1=C[C@@H]2N(C)CC[C@]2(c2ccc(OC)c(OC)c2)CC1 [Compound 405] ; retrieve measured Human Plasma Prodrug (%).
Given back: 46.7%

Source: patent US12269800B2
